# maps each entry to its GI50
tested on: CCRF-CEM; assay: NCI tumour cell line growth inhibition, 48 h
The source made the active and inactive calls. Cut-off read from the data, not from the text of the source: active = GI50 up to about 1.1 µM and inactive = higher.

Worked set:
CCOC(=O)C1CCCCN1C(=O)Cc1c[nH]c2ccccc12 (configuration not stated)
42.5 µM (inactive)
COC(=O)c1cc(C#N)[nH]c1-c1ccsc1
76.2 µM (inactive)
O=C(O)c1ccccc1[Se][Se]c1ccccc1C(=O)O
56 µM (inactive)

Let's switch to this molecule now.
Lab note: record GI50 of C=CC(OC(=O)C(C)C)c1ccc(OC(=O)C(C)C)cc1 (configuration not stated) tested on CCRF-CEM.
3.24 µM (inactive)

###

system: MOLT-4; assay: NCI tumour cell line growth inhibition, 48 h
Active and inactive are the calls of the source. No stated cut-off is given here; in the data, active = GI50 up to about 1.1 µM and inactive = higher.
Parameter: GI50. Scope: all listed entries.

Example cases with answers are listed next.
CC(=O)Nc1ccc(-c2nc3ccccc3s2)cc1O
14.6 µM (inactive)
CCOc1ccc(-n2nnc3c(N)nc(N)nc32)cc1
> 100 µM (inactive)
O=C(c1ccco1)N(C(=O)N1CCN(c2ccccc2)CC1)S(=O)(=O)c1ccccc1
21.9 µM (inactive)
CCC1CCC2CCCC(C)N12 (stereo not drawn)
> 100 µM (inactive)
COC(=O)N/N=C(/CCN1CCCC1)CC(c1ccccc1)c1c(O)c2ccccc2oc1=O (stereo not drawn)
> 100 µM (inactive)
CCOC(=O)C(NC(=O)CC(C)C)(Nc1ccc(C(F)(F)F)cc1)C(F)(F)F (stereo not drawn)
23 µM (inactive)

Provide measured GI50 value, entry: CCC1(CC)CC(=NNS(=O)(=O)c2ccc(C)cc2)C1
> 100 µM (inactive)

Indicate its recorded GI50; the compound in question is O=C(O)[C@@H]1NC[C@H]2C(Br)=NO[C@H]21
29.3 µM (inactive)

Check the records and state GI50 for CCCCC1(C(NC(=O)c2ccccc2Cl)c2ccncc2)C(=O)N(c2ccccc2)N(c2ccccc2)C1=O (stereo not drawn)
11.9 µM (inactive)

Return GI50 for the following compound: O=C(/C=C\c1ccc(Cl)cc1Cl)c1cccs1
30.2 µM (inactive)

Given the compound CCN(CC)CC(O)C1CCC(c2ccccc2)CC1 (stereo not drawn) , write its reported GI50.
43.8 µM (inactive)

Look up and report measured GI50 for this entry: O=C1CSC2(CC(/C=C/c3ccccc3[N+](=O)[O-])=NN2c2cccc(S(=O)(=O)O)c2)N1c1nc2ccccc2s1 (stereo not drawn)
15.7 µM (inactive)

Kindly indicate its recorded GI50. Item: Nc1sccc1S(=O)(=O)c1ccsc1N
> 100 µM (inactive)
